The measured values listed here are drawn from patent US6673795B2.

endpoint name: melting point

Item: Cc1nc(N2CCN(c3ccc(F)cc3)CC2)c(C#N)nc1-c1ccccc1 | melting point: 117 to 120 °C

// field: melting point; key: COCCOc1nc(C)nc(N2CCC(c3ccc(F)cc3)CC2)c1[N+](=O)[O-] ; value = 45 to 48 °C

Record Cc1nc(N2CCC(c3ccccc3)CC2)c([N+](=O)[O-])c(=O)[nH]1 , field melting point: 210 to 213 °C

Given item CCOc1nc(C)nc(N2CCN(c3ccc(F)cc3)CC2)c1[N+](=O)[O-] , the value recorded as its melting point is 116 to 119 °C

###

# target of assay: rat mGluR1a receptor (Rattus norvegicus, UniProt P23385)
# Sequence (P23385 19-1199): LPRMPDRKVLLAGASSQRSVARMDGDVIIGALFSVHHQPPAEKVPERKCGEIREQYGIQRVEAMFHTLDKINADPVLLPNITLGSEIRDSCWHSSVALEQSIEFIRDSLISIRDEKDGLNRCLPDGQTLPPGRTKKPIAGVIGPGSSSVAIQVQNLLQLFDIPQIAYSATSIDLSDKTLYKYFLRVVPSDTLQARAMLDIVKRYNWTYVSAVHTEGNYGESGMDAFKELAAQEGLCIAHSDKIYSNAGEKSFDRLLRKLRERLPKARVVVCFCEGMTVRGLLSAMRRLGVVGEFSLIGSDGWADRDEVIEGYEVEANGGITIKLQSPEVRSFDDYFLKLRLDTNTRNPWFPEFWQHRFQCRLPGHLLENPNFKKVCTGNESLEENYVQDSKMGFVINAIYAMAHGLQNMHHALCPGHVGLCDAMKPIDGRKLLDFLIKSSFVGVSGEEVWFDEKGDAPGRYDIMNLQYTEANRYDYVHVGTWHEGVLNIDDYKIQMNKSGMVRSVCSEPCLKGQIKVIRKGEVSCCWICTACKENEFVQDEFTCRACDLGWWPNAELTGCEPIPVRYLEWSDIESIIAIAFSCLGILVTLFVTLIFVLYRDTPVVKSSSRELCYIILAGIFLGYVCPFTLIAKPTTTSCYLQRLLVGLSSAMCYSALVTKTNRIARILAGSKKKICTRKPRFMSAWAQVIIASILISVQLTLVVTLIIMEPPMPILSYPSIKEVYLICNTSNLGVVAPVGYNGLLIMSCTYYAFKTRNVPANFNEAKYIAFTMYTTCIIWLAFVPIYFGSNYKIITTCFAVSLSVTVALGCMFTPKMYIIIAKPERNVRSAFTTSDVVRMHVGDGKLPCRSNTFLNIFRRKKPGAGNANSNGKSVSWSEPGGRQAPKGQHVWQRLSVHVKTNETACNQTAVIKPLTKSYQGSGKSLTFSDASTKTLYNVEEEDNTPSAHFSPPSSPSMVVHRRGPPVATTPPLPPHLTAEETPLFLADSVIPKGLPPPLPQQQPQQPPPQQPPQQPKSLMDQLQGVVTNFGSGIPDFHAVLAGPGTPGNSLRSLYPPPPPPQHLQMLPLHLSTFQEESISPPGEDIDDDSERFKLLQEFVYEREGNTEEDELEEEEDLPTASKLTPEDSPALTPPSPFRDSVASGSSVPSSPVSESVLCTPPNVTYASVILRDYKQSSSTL
Labelling field: enter true if recorded IC50 is less than 200 nM. Enter false if it equals or exceeds that cut-off.

Find out if reported IC50 for CCOc1nc(C)nc(N2CCN(c3ccc(F)cc3)CC2)c1[N+](=O)[O-] is less than 200 nM true

Find out if reported IC50 for Cc1nc(OCCO)c([N+](=O)[O-])c(N2CCN(c3ccc(F)cc3)CC2)n1 is less than 200 nM true

Please state whether IC50 is below 200 nM for N#Cc1nnc(NCCO)nc1N1CC=C(c2ccccc2)CC1 false

IC50 under 200 nM? Item: N#Cc1c(NCCO)nc(NCc2cccnc2)nc1N1CCC(c2ccccc2)CC1 true

Quick check: does CCn1c(C)nc(N2CCN(c3ccc(F)cc3)CC2)c([N+](=O)[O-])c1=O have IC50 under 200 nM? true

Is the reported IC50 for Cc1nc(N2CCN(c3ccc(F)cc3)CC2)c([N+](=O)[O-])c(=O)[nH]1 strictly below 200 nM? false

Strictly below 200 nM in IC50? N#Cc1c(NCCO)nc(NCCO)nc1N1CCC(c2ccc(F)cc2)CC1 false

Is IC50 strictly under 200 nM for the entry CCc1nc(N2CCN(c3ccccc3)CC2)c(C#N)nc1C ? true

Does the reported IC50 of CCc1c(C)nc(N2CCN(c3ccc(F)cc3)CC2)c(C#N)[n+]1[O-] stay below 200 nM? true

Hi there! Is IC50 for N#Cc1c(NCCO)nc(NCCO)nc1N1CCC(C#N)(c2ccccc2)CC1 below 200 nM, do you know? false

Consider the compound N#Cc1ncc(NCCO)nc1N1CCN(c2ccc(F)cc2)CC1 . Is its IC50 strictly less than 200 nM? false

Determine whether this compound shows IC50 lower than 200 nM (ties excluded): CCc1nc(C#N)c(N2CCN(c3ccccc3)CC2)nc1C true

Given N#Cc1c(NCc2ccccn2)nc(NCc2ccccn2)nc1N1CCN(c2ccccc2)CC1 , is recorded IC50 strictly lower than 200 nM? false

Regarding Cc1nc(N2CCN(c3ccc(F)cc3)CC2)c([N+](=O)[O-])c(=O)n1CCO , kindly confirm whether its IC50 is beneath 200 nM. true

Does the reported IC50 of the following compound sit strictly below 200 nM? CSc1nc(N)nc(N2CCC(c3ccc(F)cc3)CC2)c1C#N true
